The binders listed here are annotated with their apparent Kd (screen).
Molecular target: T1, TNFR1 (Homo sapiens, UniProt P19438)
T1 chain: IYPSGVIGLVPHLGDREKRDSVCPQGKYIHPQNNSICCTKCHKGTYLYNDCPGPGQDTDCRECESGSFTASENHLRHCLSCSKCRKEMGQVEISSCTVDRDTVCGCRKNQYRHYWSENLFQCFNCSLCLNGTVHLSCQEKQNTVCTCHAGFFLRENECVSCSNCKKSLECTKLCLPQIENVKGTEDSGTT
Assay: yeast display SC50
Give the number; nM is assumed, so skip it.

Use the examples below as a reference point.
T97Q (designed binder) SMEEEVEKAAKEYEKKKKEAIEKHLEKLKAKDKEAAERFLKELEEAAKEYAKDEAKTMSEEEAKRRAKKYKEKVLLSELSEEEQKEIKEAEEKLVRQILKYVEEAAK | 0.446
I87M (designed binder) SMEEEVEKAAKEYEKKKKEAIEKHLEKLKAKDKEAAERFLKELEEAAKEYAKDEAKTMSEEEAKRRAKKYKEKVLLSELSEEEQKEMKEAEEKLVRTILKYVEEAAK | 10.4
I98W (designed binder) SMEEEVEKAAKEYEKKKKEAIEKHLEKLKAKDKEAAERFLKELEEAAKEYAKDEAKTMSEEEAKRRAKKYKEKVLLSELSEEEQKEIKEAEEKLVRTWLKYVEEAAK | 1.86
A55F (designed binder) SMEEEVEKAAKEYEKKKKEAIEKHLEKLKAKDKEAAERFLKELEEAAKEYAKDEFKTMSEEEAKRRAKKYKEKVLLSELSEEEQKEIKEAEEKLVRTILKYVEEAAK | 11.4
L76C (designed binder) SMEEEVEKAAKEYEKKKKEAIEKHLEKLKAKDKEAAERFLKELEEAAKEYAKDEAKTMSEEEAKRRAKKYKEKVLCSELSEEEQKEIKEAEEKLVRTILKYVEEAAK | 3
E37Q (designed binder) SMEEEVEKAAKEYEKKKKEAIEKHLEKLKAKDKEAAQRFLKELEEAAKEYAKDEAKTMSEEEAKRRAKKYKEKVLLSELSEEEQKEIKEAEEKLVRTILKYVEEAAK | 0.539
K41T (designed binder) SMEEEVEKAAKEYEKKKKEAIEKHLEKLKAKDKEAAERFLTELEEAAKEYAKDEAKTMSEEEAKRRAKKYKEKVLLSELSEEEQKEIKEAEEKLVRTILKYVEEAAK | 0.956

Now take the following binder into account.
// field: apparent Kd (screen); key: A30Q (designed binder) SMEEEVEKAAKEYEKKKKEAIEKHLEKLKQKDKEAAERFLKELEEAAKEYAKDEAKTMSEEEAKRRAKKYKEKVLLSELSEEEQKEIKEAEEKLVRTILKYVEEAAK ; value = 0.593
